- Test system: HSC-4 squamous cell carcinoma cells
- ASSAY NAME: Cytotoxicity (MTT, 48 h) against HSC-4 cells
- Type: cell-based, human
- MEASUREMENT CONDITIONS: average CC50 towards HGF, HPLF, HPC divided by CC50 against HSC-4
Each record is given Met if its reported SI (HSC-4) is strictly below 8. Records at or above 8 are given Not met.

Could you please tell me whether SI (HSC-4) recorded for `O=C1C(=Cc2ccc(F)c(F)c2)CN(C(=O)C(Cl)Cl)CC1=Cc1ccc(F)c(F)c1` is less than 8? Not met

API: query returns whether the compound falls strictly under 8 in SI (HSC-4). Query: `O=C1C(=Cc2ccccc2)CN(C(=O)C(Cl)Cl)CC1=Cc1ccccc1` Met

Would you kindly verify if SI (HSC-4) of `COc1cc(/C=C2\CN(C(=O)C(Cl)Cl)C/C(=C\c3cc(OC)c(OC)c(OC)c3)C2=O)cc(OC)c1OC` is strictly less than 8? Not met

Please determine if `O=C1C(=Cc2ccc(Cl)c(Cl)c2)CN(C(=O)C(Cl)Cl)CC1=Cc1ccc(Cl)c(Cl)c1` is below 8 in terms of SI (HSC-4). Met

Please let me know if `O=C1C(=Cc2ccccc2)CNCC1=Cc1ccccc1` shows SI (HSC-4) below 8. Not met

* * *

Each entry below lists one item and its recorded log10(CC50) value.
- Tested on: gingival fibroblast (HGF)
- ASSAY NAME: Cytotoxicity (MTT, 48 h) against HGF non-malignant cells
- Type: cell-based, human
- MEASUREMENT CONDITIONS: mean ± S.D. of triplicate
Each number you see is log10 of CC50, and the unit inside the log is µM.

Example cases with answers are listed next.
1) O=C1C(=Cc2ccc(F)c(F)c2)CN(C(=O)C(Cl)Cl)CC1=Cc1ccc(F)c(F)c1 :: 0.34
2) O=C1C(=Cc2ccc(Cl)c(Cl)c2)CN(C(=O)C(Cl)Cl)CC1=Cc1ccc(Cl)c(Cl)c1 :: 0.02
3) O=C1C(=Cc2ccccc2)CN(C(=O)C(Cl)Cl)CC1=Cc1ccccc1 :: 0.77
4) O=C1/C(=C/c2ccc3c(c2)OCO3)CN(C(=O)C(Cl)Cl)C/C1=C\c1ccc2c(c1)OCO2 :: 0.75
5) COc1cc(/C=C2\CN(C(=O)C(Cl)Cl)C/C(=C\c3cc(OC)c(OC)c(OC)c3)C2=O)cc(OC)c1OC :: 0.67
6) CN(C)c1ccc(C=C2CN(C(=O)C(Cl)Cl)CC(=Cc3ccc(N(C)C)cc3)C2=O)cc1 :: 2.05

Note down log10(CC50) recorded for `O=C1C(=Cc2ccc(F)cc2)CN(C(=O)C(Cl)Cl)CC1=Cc1ccc(F)cc1` 0.47

Identify the reported log10(CC50) for the following entry. `Cc1ccc(C=C2CN(C(=O)C(Cl)Cl)CC(=Cc3ccc(C)cc3)C2=O)cc1` 0.74

Return reported log10(CC50). Input compound: `COc1ccc(/C=C2\CN(C(=O)C(Cl)Cl)C/C(=C\c3ccc(OC)cc3)C2=O)cc1` 0.96

* * *

- System: HSC-2 squamous cell carcinoma cells
- ASSAY NAME: Cytotoxicity (MTT, 48 h) against HSC-2 cells
- Type: cell-based, human
- MEASUREMENT CONDITIONS: Homo sapiens, HSC-2; 48 h, MTT, mean ± S.D. of triplicate
With a cut-off of 200 nM, any CC50 strictly below it is called True; any CC50 meeting it or above is called False.

Use these answered entries as a reference point.
1) O=c1[nH]cc(F)c(=O)[nH]1 [Compound 5-FU, 5-fluorouracil, reference compound] :: False
2) O=C1/C(=C/c2ccc(Cl)cc2)CN(C(=O)C(Cl)Cl)C/C1=C\c1ccc(Cl)cc1 [Compound 1d] :: True
3) CC(=O)N1C/C(=C\c2ccccc2)C(=O)/C(=C/c2ccccc2)C1 [Compound 2b] :: False
4) O=C1C(=Cc2ccccc2)CNCC1=Cc1ccccc1 [Compound 2a, 3,5-bis(benzylidene)-4-piperidone] :: False
5) COc1ccc(/C=C2\CN(C(=O)C(Cl)Cl)C/C(=C\c3ccc(OC)c(OC)c3)C2=O)cc1OC [Compound 1g] :: True

# evaluate next
CC50 strictly < 200 nM for this molecule? O=C1/C(=C/c2ccc([N+](=O)[O-])cc2)CN(C(=O)C(Cl)Cl)C/C1=C\c1ccc([N+](=O)[O-])cc1 [Compound 1k] True

* * *

- Test system: HSC-4 squamous cell carcinoma cells
- ASSAY NAME: Cytotoxicity (MTT, 48 h) against HSC-4 cells
- Type: cell-based, human
- MEASUREMENT CONDITIONS: 48 h, MTT, mean ± S.D. of triplicate
EXPERIMENTAL ENDPOINT: CC50 (nM)
Record the value in nM, omitting the unit from your answer.

1. O=C1C(=Cc2ccc(Cl)c(Cl)c2)CN(C(=O)C(Cl)Cl)CC1=Cc1ccc(Cl)c(Cl)c1 :: 230
2. COc1ccc(/C=C2\CN(C(=O)C(Cl)Cl)C/C(=C\c3ccc(OC)cc3)C2=O)cc1 :: 1260
3. O=C1C(=Cc2ccc(F)c(F)c2)CN(C(=O)C(Cl)Cl)CC1=Cc1ccc(F)c(F)c1 :: 200
4. O=C1C(=Cc2ccc(F)cc2)CN(C(=O)C(Cl)Cl)CC1=Cc1ccc(F)cc1 :: 330
5. Cc1ccc(C=C2CN(C(=O)C(Cl)Cl)CC(=Cc3ccc(C)cc3)C2=O)cc1 :: 450
6. CN(C)c1ccc(C=C2CN(C(=O)C(Cl)Cl)CC(=Cc3ccc(N(C)C)cc3)C2=O)cc1 :: 19600

Determine its reported CC50: `O=C1/C(=C/c2ccc3c(c2)OCO3)CN(C(=O)C(Cl)Cl)C/C1=C\c1ccc2c(c1)OCO2` 650

Please list CC50 recorded for the compound `O=C1C(=Cc2ccccc2)CN(C(=O)C(Cl)Cl)CC1=Cc1ccccc1` 590

Please indicate CC50 recorded for `COc1cc(/C=C2\CN(C(=O)C(Cl)Cl)C/C(=C\c3cc(OC)c(OC)c(OC)c3)C2=O)cc(OC)c1OC` 990

* * *

- ASSAY NAME: Cytotoxicity (MTT, 48 h) against HPC non-malignant cells
- Format: cell-based, human
- MEASUREMENT CONDITIONS: female, human, normal pulp cells (HPC), mean ± S.D. of triplicate
EXPERIMENTAL ENDPOINT: CC50 at 48 h (nM)
The reply should be a number in nM, with the unit left off.

1. O=C1/C(=C/c2ccc(Cl)cc2)CN(C(=O)C(Cl)Cl)C/C1=C\c1ccc(Cl)cc1 :: 900

Entry `O=C1C(=Cc2ccccc2)CNCC1=Cc1ccccc1` needs its CC50 at 48 h filled in; supply it. 4300

Provide one value: measured CC50 at 48 h of `COc1ccc(/C=C2\CN(C(=O)C(Cl)Cl)C/C(=C\c3ccc(OC)c(OC)c3)C2=O)cc1OC` 1190

Please indicate CC50 at 48 h recorded for `CC(=O)N1C/C(=C\c2ccccc2)C(=O)/C(=C/c2ccccc2)C1` 4830

Tell us which CC50 at 48 h value is on record for `O=C1/C(=C/c2ccc([N+](=O)[O-])cc2)CN(C(=O)C(Cl)Cl)C/C1=C\c1ccc([N+](=O)[O-])cc1` 560

* * *

- Tested on: Ca9-22 squamous cell carcinoma cells
- ASSAY NAME: Cytotoxicity (MTT, 48 h) against Ca9-22 cells
- Type: cell-based, human
- MEASUREMENT CONDITIONS: 48 h, MTT, mean ± S.D. of triplicate
Overview of reported CC50 across a group of compounds:
Just the number in nM, nothing appended.

Please indicate CC50 recorded for O=C1C(=Cc2ccc(F)cc2)CN(C(=O)C(Cl)Cl)CC1=Cc1ccc(F)cc1 [Compound 1b] 110

Output CC50 of O=C1C(=Cc2ccc(F)c(F)c2)CN(C(=O)C(Cl)Cl)CC1=Cc1ccc(F)c(F)c1 [Compound 1c] 90

* * *

- Tested on: HGF, HPLF, and HPC cells
- ASSAY NAME: Average cytotoxicity over the three non-malignant cells
- Format: cell-based, human
Decide using CC50 alone. Strictly below 4 µM: Met. Equal to or above 4 µM: Not met.

1. O=C([O-])C(Cl)Cl.[Na+] [SDA, sodium dichloroacetate, reference compound] :: Not met
2. O=C1/C(=C/c2ccc3c(c2)OCO3)CN(C(=O)C(Cl)Cl)C/C1=C\c1ccc2c(c1)OCO2 :: Not met
3. CN(C)c1ccc(C=C2CN(C(=O)C(Cl)Cl)CC(=Cc3ccc(N(C)C)cc3)C2=O)cc1 :: Not met

Does `O=C1C(=Cc2ccc(F)cc2)CN(C(=O)C(Cl)Cl)CC1=Cc1ccc(F)cc1` have CC50 strictly under 4 µM? Met

Strictly below 4 µM in CC50? `O=C1C(=Cc2ccc(Cl)c(Cl)c2)CN(C(=O)C(Cl)Cl)CC1=Cc1ccc(Cl)c(Cl)c1` Met

Determine if `O=C1C(=Cc2ccc(F)c(F)c2)CN(C(=O)C(Cl)Cl)CC1=Cc1ccc(F)c(F)c1` shows CC50 strictly lower than 4 µM. Met

Find out if reported CC50 for `COc1ccc(/C=C2\CN(C(=O)C(Cl)Cl)C/C(=C\c3ccc(OC)cc3)C2=O)cc1` is less than 4 µM Not met

A record lists `COc1cc(/C=C2\CN(C(=O)C(Cl)Cl)C/C(=C\c3cc(OC)c(OC)c(OC)c3)C2=O)cc(OC)c1OC` . Is its CC50 below 4 µM? Not met

Answer whether the molecule `Cc1ccc(C=C2CN(C(=O)C(Cl)Cl)CC(=Cc3ccc(C)cc3)C2=O)cc1` has CC50 strictly less than 4 µM Not met

Data origin, for the record: paper PMC9228592
